FYI, the data here is from ChEMBL document CHEMBL3421533.

# ASSAY_SYSTEM: Muscle, skeletal receptor tyrosine-protein kinase (Homo sapiens, UniProt O15146)
# Sequence (O15146 whole entry): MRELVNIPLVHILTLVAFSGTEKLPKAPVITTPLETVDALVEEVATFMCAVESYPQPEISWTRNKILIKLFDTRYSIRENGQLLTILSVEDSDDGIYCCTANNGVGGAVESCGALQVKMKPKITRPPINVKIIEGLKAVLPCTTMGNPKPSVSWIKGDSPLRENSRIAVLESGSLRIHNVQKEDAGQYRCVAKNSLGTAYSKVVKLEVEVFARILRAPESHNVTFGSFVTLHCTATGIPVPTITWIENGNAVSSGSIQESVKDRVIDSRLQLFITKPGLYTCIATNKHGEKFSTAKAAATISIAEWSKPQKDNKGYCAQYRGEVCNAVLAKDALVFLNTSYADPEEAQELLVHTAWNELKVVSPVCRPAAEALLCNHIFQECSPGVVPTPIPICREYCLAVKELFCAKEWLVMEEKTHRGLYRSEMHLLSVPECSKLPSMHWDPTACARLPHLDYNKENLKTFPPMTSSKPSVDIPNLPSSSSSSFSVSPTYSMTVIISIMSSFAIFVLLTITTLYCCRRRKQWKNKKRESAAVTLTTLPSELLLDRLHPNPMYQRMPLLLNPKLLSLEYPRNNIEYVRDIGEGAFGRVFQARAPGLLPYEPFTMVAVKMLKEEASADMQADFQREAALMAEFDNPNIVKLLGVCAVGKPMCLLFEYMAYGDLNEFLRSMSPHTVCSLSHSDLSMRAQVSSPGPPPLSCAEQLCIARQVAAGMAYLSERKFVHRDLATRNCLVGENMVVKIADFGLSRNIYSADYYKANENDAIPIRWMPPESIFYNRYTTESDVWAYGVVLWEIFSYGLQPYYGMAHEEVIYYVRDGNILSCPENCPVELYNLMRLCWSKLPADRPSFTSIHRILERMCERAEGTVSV
# MEASUREMENT_DESCRIPTION: Inhibition of human MuSK by millipore radiometric assay
MEASUREMENT_LABEL: pIC50
Remember the convention: pIC50 equals -log10 of concentration in molar.

### Prompt Data request, read-out pIC50, for O=C(N[C@@H](c1ccccn1)C1CC1)c1ccc2[nH]nc(-c3ccc(N4[C@H]5CC[C@H]4CC(O)C5)cc3)c2c1 (stereo in doubt; 75)
### Response 6.16

* * *

Measured IC50 of individual entries
# ASSAY_SYSTEM: Aurora kinase B/Inner centromere protein (Homo sapiens, UniProt Q96GD4)
# Sequence (Q96GD4 whole entry): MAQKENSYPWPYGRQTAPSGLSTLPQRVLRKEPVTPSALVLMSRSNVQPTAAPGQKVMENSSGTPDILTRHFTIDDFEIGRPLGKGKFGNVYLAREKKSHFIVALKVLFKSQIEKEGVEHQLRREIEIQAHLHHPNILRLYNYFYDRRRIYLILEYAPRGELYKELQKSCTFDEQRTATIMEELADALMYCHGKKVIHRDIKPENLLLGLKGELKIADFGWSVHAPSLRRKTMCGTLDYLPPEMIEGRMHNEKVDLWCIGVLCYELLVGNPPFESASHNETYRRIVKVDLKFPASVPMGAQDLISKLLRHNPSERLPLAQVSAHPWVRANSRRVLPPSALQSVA
# Sequence (Q9NQS7 whole entry, further chain): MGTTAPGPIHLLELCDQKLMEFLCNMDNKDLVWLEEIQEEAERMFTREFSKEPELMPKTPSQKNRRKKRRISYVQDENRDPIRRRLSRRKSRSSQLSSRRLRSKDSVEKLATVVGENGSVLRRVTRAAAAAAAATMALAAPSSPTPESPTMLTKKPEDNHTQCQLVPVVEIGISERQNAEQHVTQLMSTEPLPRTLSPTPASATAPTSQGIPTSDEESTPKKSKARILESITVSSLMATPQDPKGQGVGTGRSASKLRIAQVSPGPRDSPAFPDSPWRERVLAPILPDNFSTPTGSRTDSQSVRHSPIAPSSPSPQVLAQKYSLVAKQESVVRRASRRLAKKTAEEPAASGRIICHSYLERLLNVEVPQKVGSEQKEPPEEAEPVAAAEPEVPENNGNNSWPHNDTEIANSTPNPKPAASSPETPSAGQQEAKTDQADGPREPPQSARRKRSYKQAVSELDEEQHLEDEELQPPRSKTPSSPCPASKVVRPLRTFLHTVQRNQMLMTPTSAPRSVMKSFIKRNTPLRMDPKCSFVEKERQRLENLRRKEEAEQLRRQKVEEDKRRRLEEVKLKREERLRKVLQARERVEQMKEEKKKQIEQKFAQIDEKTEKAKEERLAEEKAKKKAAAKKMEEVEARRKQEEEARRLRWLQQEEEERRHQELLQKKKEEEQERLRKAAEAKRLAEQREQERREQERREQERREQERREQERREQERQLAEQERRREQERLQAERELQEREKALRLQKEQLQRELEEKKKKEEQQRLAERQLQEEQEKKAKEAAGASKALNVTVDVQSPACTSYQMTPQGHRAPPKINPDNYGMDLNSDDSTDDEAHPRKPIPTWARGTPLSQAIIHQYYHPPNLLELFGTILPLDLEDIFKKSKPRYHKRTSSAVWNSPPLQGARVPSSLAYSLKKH
# MEASUREMENT_DESCRIPTION: Inhibition of AURKB/INCENP (unknown origin) preincubated for 15 mins prior to ATP addition by FRET-based homogenous assay
Hi! Could you send only the number? It should be in µM, unit omitted.

COMPOUND	IC50 / µM
O=C(N[C@@H](c1ccccn1)C1CC1)c1ccc2[nH]nc(-c3ccc(N4[C@H]5CC[C@H]4CC(O)C5)cc3)c2c1 (stereo in doubt; 75)	1.3

Pending compound:
### Prompt Data request, read-out IC50, for O=C(N[C@H](c1ncccn1)C1CCCC1)c1ccc2[nH]nc(-c3ccc(N4[C@H]5CC[C@H]4CC(O)C5)cc3)c2c1 (stereo partly drawn)
### Response 0.62

* * *

// pIC50 collected for Cytochrome P450 3A4 (Homo sapiens, UniProt P08684)
Remember the convention: pIC50 equals -log10 of concentration in molar.

A selection of reference data follows.
MOLECULE	pIC50
O=C(N[C@H](CC1CC1)c1ccccn1)c1ccc2[nH]nc(-c3ccc(N4[C@H]5CC[C@H]4CC(O)C5)cc3)c2c1 (stereo partly drawn)	5.89
O=C(N[C@H](c1ccccn1)C1CC1)c1ccc2[nH]nc(-c3ccc(N4[C@H]5CC[C@H]4CC(O)C5)cc3)c2c1 (stereo in doubt; 74)	5.68
O=C(N[C@@H](c1ccccn1)C1CCCC1)c1ccc2[nH]nc(-c3ccc(N4C5CCC4COC5)cc3)c2c1	6.44
CN1[C@@H]2CC[C@H]1C[C@@H](Oc1ccc(-c3n[nH]c4ccc(C(=O)NC(c5ccccc5)C5CC5)cc34)cc1)C2 (mixture of isomers)	5.62
O=C(N[C@@H](c1ccccn1)C1CC1)c1ccc2[nH]nc(-c3ccc(N4[C@H]5CC[C@H]4CC(O)C5)cc3)c2c1 (stereo in doubt; 87)	5.85
O=C(N[C@H](c1ccccn1)C1CCCC1)c1ccc2[nH]nc(-c3ccc(N4[C@H]5CC[C@H]4CC(O)C5)cc3)c2c1 (stereo in doubt; 76)	6.09
CC(C)CC(NC(=O)c1ccc2[nH]nc(-c3ccc(O[C@H]4C[C@H]5CC[C@@H](C4)N5C=O)cc3)c2c1)c1ccccn1 (mixture of isomers)	6.39
O=CN1CCC(Oc2ccc(-c3n[nH]c4ccc(C(=O)NC(c5ccccn5)C5CC5)cc34)cc2)CC1 (racemic)	5.82

### Prompt Data request, read-out pIC50, for CC(C)[C@H](NC(=O)c1ccc2[nH]nc(-c3ccc(N4C5CCC4COC5)cc3)c2c1)c1ccccc1Cl
### Response 7.22

### Prompt Data request, read-out pIC50, for O=C(N[C@H](c1ccccn1)C1CC1)c1ccc2[nH]nc(-c3ccc(N4[C@H]5CC[C@H]4CC(O)C5)cc3)c2c1 (stereo in doubt; 86)
### Response 5.77

### Prompt Data request, read-out pIC50, for O=C(N[C@@H](c1ccccc1F)C1CC1)c1ccc2[nH]nc(-c3ccc(N4C5CCC4COC5)cc3)c2c1
### Response 6.62

### Prompt Data request, read-out pIC50, for O=C(N[C@@H](c1ccccn1)C1CCCC1)c1ccc2[nH]nc(-c3ccc(N4[C@H]5COC[C@H]4CC(O)C5)cc3)c2c1 (stereo partly drawn)
### Response 6.48

### Prompt Data request, read-out pIC50, for O=C(N[C@@H](c1ccccn1)C1CCCC1)c1ccc2[nH]nc(-c3ccc(N4[C@H]5CC[C@H]4CC(O)C5)cc3)c2c1 (stereo partly drawn)
### Response 6.64
